Record set of pIC50 for target or system UniProtKB Q07889.
Answers are plain numbers, as −log10 of the molar value.

Below, 3 compounds whose answers are already recorded.
[[record]]
compound = "Cc1nc(NC(C)c2ccc(-c3ccccc3CN(C)C)s2)c2cc(NCCn3ccnc3)ncc2n1 (centres unmarked)"
measurement_kind = "pIC50"
quantitative_result = 7.05

[[record]]
compound = "Cc1nc(NC(C)c2ccc(-c3ccccc3CN(C)C)s2)c2cc(N3CC(NS(=O)(=O)c4ccccc4)C3)ncc2n1 (centres unmarked)"
measurement_kind = "pIC50"
quantitative_result = 6.77

[[record]]
compound = "Cc1nc(NC(C)c2ccc(-c3ccccc3CN(C)C)s2)c2cc(N3CC(NC(=O)Nc4ccccc4)C3)ncc2n1 (centres unmarked)"
measurement_kind = "pIC50"
quantitative_result = 6.69


Would you mind listing pIC50 for each of the following compounds?
1. Cc1nc(N[C@H](C)c2ccc(F)cc2)c2cc(OCC3CCOCC3)ncc2n1
2. COc1cc2c(NC(C)c3cccc4c3cnn4C)nc(C)nc2cn1 (centres unmarked)
3. Cc1nc(NC(C)c2ccc(-c3ccccc3CN(C)C)s2)c2cc(C3CCN(C)C3=O)ncc2n1 (mixture of isomers)

5.60
4.90
6.85

Please supply pIC50 for each of the following items, keeping them in order.
1. COc1cc2c(NC(C)c3cccc4sccc34)nc(C)nc2cn1 (centres unmarked)
2. Cc1nc(NC(C)c2ccc(-c3ccccc3CN(C)C)s2)c2cc(OCC3CC3)ncc2n1 (centres unmarked)
3. Cc1nc(N[C@H](C)c2cccc(Br)c2)c2cc(N3CCN(Cc4cccnc4)CC3)ncc2n1

[6.26, 6.86, 6.35]

Batch request: pIC50 for each of the following compounds.
1. Cc1nc(NC(C)c2ccc(-c3ccccc3CN(C)C)s2)c2cc(NCCn3cccn3)ncc2n1 (centres unmarked)
2. CCOc1cc2c(NC(C)c3cccc4sccc34)nc(C)nc2cn1 (centres unmarked)
3. CNCc1ccccc1-c1ccc(C(C)Nc2nc(C)nc3cnc(Oc4ccc(N5CCCC5=O)cc4)cc23)s1 (centres unmarked)
4. Cc1nc(NC(C)c2ccc(-c3ccccc3CN(C)C)s2)c2cc(NCCN3CCOCC3)ncc2n1 (centres unmarked)

6.72
6.45
6.57
6.94

----------
- Tgt: hSOS1 (hSOS1-mediated loading of hK-RasG12C-GDP) (Homo sapiens, UniProt Q07889)
- Sequence (Q07889 with tags, fused parts or gaps): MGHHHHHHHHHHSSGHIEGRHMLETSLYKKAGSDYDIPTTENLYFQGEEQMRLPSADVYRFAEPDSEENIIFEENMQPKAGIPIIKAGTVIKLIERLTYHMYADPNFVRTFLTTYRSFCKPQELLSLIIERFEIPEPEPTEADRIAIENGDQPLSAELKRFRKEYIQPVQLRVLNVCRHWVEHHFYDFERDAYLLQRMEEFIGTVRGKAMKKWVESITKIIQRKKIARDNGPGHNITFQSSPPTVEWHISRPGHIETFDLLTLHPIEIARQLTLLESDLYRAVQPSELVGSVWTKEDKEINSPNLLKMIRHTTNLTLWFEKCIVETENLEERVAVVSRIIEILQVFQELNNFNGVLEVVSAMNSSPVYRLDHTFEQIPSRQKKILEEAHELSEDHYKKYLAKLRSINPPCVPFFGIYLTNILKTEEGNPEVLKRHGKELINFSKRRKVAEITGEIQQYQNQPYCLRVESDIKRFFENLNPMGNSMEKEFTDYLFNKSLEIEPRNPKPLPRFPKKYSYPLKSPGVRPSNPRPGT
Measurement Kind: IC50 (µM)
Answers are plain numbers, in µM.

Before answering, review these 6 worked examples.
[[record]]
compound = "Cc1nc(N[C@H](C)c2cccc(Br)c2)c2cc(NC3CCOCC3)ncc2n1"
measurement_kind = "IC50"
quantitative_result = 12.8

[[record]]
compound = "CC(=O)NCCNc1cc2c(NC(C)c3ccc(-c4ccccc4CN(C)C)s3)nc(C)nc2cn1 (centres unmarked)"
measurement_kind = "IC50"
quantitative_result = 0.0895

[[record]]
compound = "Cc1nc(N[C@H](C)c2cccc(Br)c2)c2cc(NCCN3CCOCC3)ncc2n1"
measurement_kind = "IC50"
quantitative_result = 1.64

[[record]]
compound = "Cc1nc(N[C@H](C)c2cccc(Br)c2)c2nc(N3CCOCC3)ccc2n1"
measurement_kind = "IC50"
quantitative_result = 10.6

[[record]]
compound = "CCOc1cc2c(NC(C)c3ccc(-c4ccccc4CN(C)C)s3)nc(C)nc2cn1 (centres unmarked)"
measurement_kind = "IC50"
quantitative_result = 0.0611

[[record]]
compound = "Cc1nc(N[C@H](C)c2cccc(Br)c2)c2cc(NCCn3ccnc3)ncc2n1"
measurement_kind = "IC50"
quantitative_result = 1.21


Retrieve IC50 measured for Cc1nc(NC(C)c2ccc(-c3ccccc3CN(C)C)s2)c2cc(NC3CCOCC3)ncc2n1 (centres unmarked) and print it. 0.239
